All values here come from patent US20120276102A1.

Property: Neutralization of B cell proliferation IC50; scope: individual binders
Target: human IL-21R expressed on cells (human, UniProt Q9HBE5 20-538)
Sequence (Q9HBE5 20-538 limits assumed): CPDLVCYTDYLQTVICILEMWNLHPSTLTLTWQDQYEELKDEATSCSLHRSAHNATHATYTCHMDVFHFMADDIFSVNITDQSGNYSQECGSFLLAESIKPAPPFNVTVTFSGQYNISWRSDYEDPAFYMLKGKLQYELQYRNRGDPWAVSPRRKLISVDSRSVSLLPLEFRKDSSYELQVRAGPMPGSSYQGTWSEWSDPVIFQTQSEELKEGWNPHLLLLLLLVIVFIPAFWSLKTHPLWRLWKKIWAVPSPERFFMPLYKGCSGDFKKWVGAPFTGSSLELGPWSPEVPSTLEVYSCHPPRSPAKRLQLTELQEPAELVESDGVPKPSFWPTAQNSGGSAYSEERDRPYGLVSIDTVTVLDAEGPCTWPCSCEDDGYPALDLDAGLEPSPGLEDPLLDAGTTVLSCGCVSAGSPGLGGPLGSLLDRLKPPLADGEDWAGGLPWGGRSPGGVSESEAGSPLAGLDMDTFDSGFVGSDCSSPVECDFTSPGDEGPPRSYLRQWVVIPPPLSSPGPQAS
Assay: cell-based or functional assay
Number only, in pM; omit the unit.

{"columns": ["binder", "observedValue"],
 "data": [
  ["AbS (antibody, V domains shown, CDR3 graft, residue limits derived as for m29; also called VHP/VL6; VHPTM/VL6) VH: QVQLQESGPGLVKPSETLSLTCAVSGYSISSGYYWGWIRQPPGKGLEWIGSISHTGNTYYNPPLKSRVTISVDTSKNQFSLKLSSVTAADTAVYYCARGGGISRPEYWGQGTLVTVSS VL: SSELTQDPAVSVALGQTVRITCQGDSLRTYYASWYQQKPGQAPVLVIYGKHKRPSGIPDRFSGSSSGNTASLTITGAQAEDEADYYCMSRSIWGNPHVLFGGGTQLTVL", 440]
]}

Let us move to another entry and its Neutralization of B cell proliferation IC50.
Query: For the binder AbQ (antibody, human IgG1, V domains shown, CDR3 graft, residue limits derived as for m29; also called VH3/VL2; VH3DM/VL2) VH: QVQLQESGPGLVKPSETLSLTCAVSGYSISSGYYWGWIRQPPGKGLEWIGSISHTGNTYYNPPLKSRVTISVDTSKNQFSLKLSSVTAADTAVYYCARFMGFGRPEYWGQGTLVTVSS VL: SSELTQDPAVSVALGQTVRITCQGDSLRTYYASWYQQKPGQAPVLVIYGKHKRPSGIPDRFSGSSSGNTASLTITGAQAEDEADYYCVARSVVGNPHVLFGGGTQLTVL , give its measured Neutralization of B cell proliferation IC50 value.
Result: 160
